- measured_on: T1, Anti-CD28 Fab (SEQ ID NOs: 696, 697)
- T1 construct: In the phage ELISA the Fab was biotinylated and captured on neutravidin coated plates
- procedure_summary: phage ELISA; Fab-coated wells pre-incubated with CD28 antigen as competitor, clonal phage supernatant, anti-M13 HRP detection
Entries whose Phage binding ELISA, Anti-CD28 Fab signal in the presence of CD28 is below 0.09 take yes; entries at or above 0.09 take no.

See these solved cases before continuing.
YCEGHMSEYMRKCL [Phage-1288]    no
YCQGHAPWYMVKCL [Phage-1287]    yes
YCVGHLPLYMPNCL [Phage-1289]    no

Query binder follows.
Inquiry: Strictly below 0.09: is that where Phage binding ELISA, Anti-CD28 Fab signal in the presence of CD28 of YCEGHSRQYMEKCM [Phage-1299] sits?
Reply text: no
